tested_system: HIV Env of isolate T257-31 (clade AG) (HIV)
measurement_protocol: cell-based or functional assay
reported_metric: IC50 (µg/ml) with constrains (µg/mL)
Just the number in µg/mL, nothing appended.

The following binders have reported results that may help.
{"columns": ["binder", "IC50 (µg/ml) with constrains [µg/mL]"],
 "data": [
  ["ePGDM13 (antibody, V domains shown) VH: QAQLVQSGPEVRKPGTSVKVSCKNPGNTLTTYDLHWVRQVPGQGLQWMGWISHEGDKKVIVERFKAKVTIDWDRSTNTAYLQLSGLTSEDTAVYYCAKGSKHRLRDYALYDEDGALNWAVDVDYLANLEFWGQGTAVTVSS VL: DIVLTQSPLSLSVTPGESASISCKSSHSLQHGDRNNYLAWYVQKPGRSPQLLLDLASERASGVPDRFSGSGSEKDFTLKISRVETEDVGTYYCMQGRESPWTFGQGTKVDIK", 0.02],
  ["ePGDM9 (antibody, V domains shown) VH: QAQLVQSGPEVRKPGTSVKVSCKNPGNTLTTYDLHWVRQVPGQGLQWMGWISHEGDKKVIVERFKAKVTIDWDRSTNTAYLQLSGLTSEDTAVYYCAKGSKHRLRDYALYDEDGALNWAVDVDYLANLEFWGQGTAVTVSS VL: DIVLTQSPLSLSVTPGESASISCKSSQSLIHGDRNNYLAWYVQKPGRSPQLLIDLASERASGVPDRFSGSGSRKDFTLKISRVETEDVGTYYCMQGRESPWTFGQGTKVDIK", 0.019],
  ["PGDM1400 (antibody, V domains shown) VH: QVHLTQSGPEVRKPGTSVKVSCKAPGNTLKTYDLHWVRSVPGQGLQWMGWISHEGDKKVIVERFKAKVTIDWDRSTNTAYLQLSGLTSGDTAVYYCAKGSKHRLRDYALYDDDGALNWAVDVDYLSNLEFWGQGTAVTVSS VL: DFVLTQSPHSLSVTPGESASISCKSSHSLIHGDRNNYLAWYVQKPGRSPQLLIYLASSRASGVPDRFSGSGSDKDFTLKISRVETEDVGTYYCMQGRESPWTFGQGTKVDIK", 0.138]
]}

Moving on to another binder below.
Which value of IC50 (µg/ml) with constrains has been reported for ePGDM5 (antibody, V domains shown) VH: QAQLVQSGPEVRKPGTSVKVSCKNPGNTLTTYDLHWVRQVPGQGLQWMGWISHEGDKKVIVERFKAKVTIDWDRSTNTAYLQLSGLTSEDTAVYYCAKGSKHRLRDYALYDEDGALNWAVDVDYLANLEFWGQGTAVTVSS VL: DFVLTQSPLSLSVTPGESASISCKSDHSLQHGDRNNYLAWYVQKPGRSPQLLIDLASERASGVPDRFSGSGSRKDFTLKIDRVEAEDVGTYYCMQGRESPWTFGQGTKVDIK in the records? 0.016
